target: human chorionic gonadotropin (hCG) heterodimer (Homo sapiens, UniProt P01215;P0DN86 P01215:25-116,P0DN86:21-165)
Sequence (P01215 25-116, chain 1 of 2, other chains not shown): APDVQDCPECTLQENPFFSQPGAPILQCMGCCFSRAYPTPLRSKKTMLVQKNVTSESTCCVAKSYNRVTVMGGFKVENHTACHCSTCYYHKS
assay_comment: filter
condition_parameters: tags: Calbiochem or Vitro Diagnostics (14,000 IU/mg); chain copies: alpha/beta heterodimer (stated); label: 32P
observed_property: binding signal (% bound at 100 nM)
Please respond with the number in % bound at 100 nM and leave the unit unwritten.

These recorded examples may help you get a feel for the data.
2nd generation ligand 98 (ssRNA, 2'-F all pyrimidines) RNA: GGGAGGACGAUGCGGGUUCCAGUAUUAGUUGAACGAUCCUUCUUAUCUGGAGUCCAGACGACUCGCCCGA : 11.7
2nd generation ligand 25 (ssRNA, 2'-F all pyrimidines) RNA: GGGAGGACGAUGCGGUUCCUGAUUCAAGUUGAACGAUCCUUCCUGCUGUACGUCCAGACGACUCGCCCGA : 0.28
2nd generation ligand 83 (ssRNA, 2'-F all pyrimidines) RNA: GGGAGGACGAUGCGGUUUGAUGAGGUAGUUGAACGAUCCUUCCAUCCGUUAGACCAGACGACUCGCCCGA : 4.48
2nd generation ligand 72 (ssRNA, 2'-F all pyrimidines) RNA: GGGAGGACGAUGCGGAUUCGAUGUAGUUUGAACGAUCCUUGUAUAUAUCGGAUCAGACGACUCGCCCGA : 0.3
2nd generation ligand 88 (ssRNA, 2'-F all pyrimidines) RNA: GGGAGGACGAUGCGGUUCGUUACGAUAAUUGAACGAUCCUUUUAUCUUUCAGUCCAGACGACUCGCCCGA : 0.32
2nd generation ligand 14 (ssRNA, 2'-F all pyrimidines) RNA: GGGAGGACGAUGCGGUUCGACACGAAAGUUGAACGAUCCUUCUAUCUGUUGGACCAGACGACUCGCCCGA : 15.4
2nd generation ligand 33 (ssRNA, 2'-F all pyrimidines) RNA: GGGAGGACGAUGCGGUUCGAUGGCCAUUUGAACGAUCCUUAUUAUCAACGGUCCAGACGACUCGCCCGA : 0.59
2nd generation ligand 49 (ssRNA, 2'-F all pyrimidines) RNA: GGGAGGACGAUGCGGUUCGUCAUCGCUAUUGAACGAUCCUUUAGCUGAUGGACCAGACGACUCGCCCGA : 14.4

Shift focus to the following entry.
Lab note: measured binding signal of 2nd generation ligand 91 (ssRNA, 2'-F all pyrimidines) RNA: GGGAGGACGAUGCGGUUCAUUUUUGUGUUGAACGAUCCUUCACUAACCUACCACAGACGACUCGCCCGA was 2.36
